Tested on: HT29 colon
Assay: NCI tumour cell line growth inhibition, 48 h
The following molecules are listed with their measured TGI values.

Solved entries:
> print(dat)
                                   molecule  quantity.kind       val
1  Cc1ccc(S(=O)(=O)c2ccc(NC(=O)SCCC(=O)O)cc2)cc1            TGI  > 100 µM
2  Cc1cc([N+](=O)[O-])ccc1NC(=O)C(=O)C(C(=O)c1ccccc1-c1ccccc1)C1OC(=O)c2ccccc21 (centres undefined)            TGI   41.9 µM
3  COc1ccc(/C=N/NC(=O)c2sc(=S)n(-c3ccccc3)c2N)cc1            TGI  > 100 µM

Prompt: Param item = COC(=O)C1=Cc2cc(OC)c(OC)c(OC)c2[C@H](c2cc(OC)c(OC)c(OC)c2)C1C(=O)OC (some centres undefined) ; retrieve measured TGI.
Response: > 100 µM
